# Tested on: Phospho-T308 Akt
# assay notes: Phospho-T308 Akt detection using immunoblot (western blot) in PC-3 cells
# Format: cell-based
# setup conditions: Homo sapiens, at 5 μM, read-out: Percent Inhibition of phospho-Akt (308) By Western
value type: inhibition at 5 µM

Example entries begin here.
molecule="O=C(NCc1noc(-c2c[nH]c3ncccc23)n1)c1cccn(Cc2ccc(Cl)cc2)c1=O [Cpd 305]" value_reported="> 75%"
molecule="COC(=O)[C@H](COc1ccc2[nH]c(=O)[nH]c2c1)NC(=O)c1cccn(Cc2ccc(F)c(F)c2)c1=O [Cpd 135]" value_reported="> 75%"
molecule="O=C(NCc1cccc(-c2ccc3n[nH]c(=O)n3c2)c1)c1cccn(Cc2ccc(F)c(F)c2)c1=O [Cpd 216]" value_reported="25 to 75%"
molecule="O=C(Nc1c(F)cccc1Oc1ccc2[nH]c(=O)[nH]c2c1)c1cccn(Cc2ccc(F)c(F)c2)c1=O [Cpd 133]" value_reported="> 75%"
molecule="CC(C)(C)OC(=O)NC[C@@H](NC(=O)c1cccn(Cc2ccc(F)c(F)c2)c1=O)c1nc(-c2c[nH]c3ncccc23)cs1 [Cpd 295]" value_reported="25 to 75%"
molecule="CC(=O)NC[C@@H](NC(=O)c1cccn(Cc2ccc(F)c(F)c2)c1=O)c1nc(-c2c[nH]c3ncccc23)cs1 [Cpd 136]" value_reported="25 to 75%"
molecule="CN(C)C(=O)C[C@@H](NC(=O)c1cccn(Cc2ccc(F)c(F)c2)c1=O)c1nnc(-c2c[nH]c3ncccc23)o1 [Cpd 290]" value_reported="25 to 75%"
molecule="O=C(NCc1ncc(-c2c[nH]c3ncccc23)s1)c1cccn(Cc2ccc(F)c(F)c2)c1=O [Cpd 132]" value_reported="> 75%"
molecule="O=C(NCc1noc(-c2c[nH]c3ncccc23)n1)c1cccn(Cc2cccc(F)c2)c1=O [Cpd 302]" value_reported="> 75%"
molecule="O=C(NCc1noc(-c2c[nH]c3ncccc23)n1)c1cccn(Cc2ccc(Cl)c(F)c2)c1=O [Cpd 304]" value_reported="> 75%"

Could you tell me which inhibition at 5 µM is on file for O=C(NCc1noc(-c2c[nH]c3ncccc23)n1)c1cccn(Cc2cccc(Cl)c2)c1=O [Cpd 294] ?
25 to 75%

I am curious: what inhibition at 5 µM value has been reported for CNC(=O)C[C@@H](NC(=O)c1cccn(Cc2ccc(F)c(F)c2)c1=O)c1ncc(-c2c[nH]c3ncccc23)s1 [Cpd 137] ?
> 75%

Quick one: inhibition at 5 µM for O=C(C[C@@H](NC(=O)c1cccn(Cc2ccc(F)c(F)c2)c1=O)c1nnc(-c2c[nH]c3ncccc23)o1)NCCN1CCCC1 [Cpd 298] ?
< 25%
